Target: GST-Hu-p50 (Homo sapiens, UniProt P19838 7-356)
Sequence (P19838 7-356): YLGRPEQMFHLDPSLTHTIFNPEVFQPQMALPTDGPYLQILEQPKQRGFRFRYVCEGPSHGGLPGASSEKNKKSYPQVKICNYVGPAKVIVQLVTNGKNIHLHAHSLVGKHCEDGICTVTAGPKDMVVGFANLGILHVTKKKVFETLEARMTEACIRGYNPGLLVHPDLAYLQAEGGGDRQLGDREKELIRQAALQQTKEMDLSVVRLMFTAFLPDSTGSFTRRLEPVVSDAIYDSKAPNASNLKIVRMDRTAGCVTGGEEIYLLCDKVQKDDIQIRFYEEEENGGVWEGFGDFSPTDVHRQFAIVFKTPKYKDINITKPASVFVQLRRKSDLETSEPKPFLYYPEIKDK
Test: protein-binding microarray (PBM); PBM: ~300 nM protein, 6 mM HEPES pH 7.8, 80 mM KCl, 0.5 mM EDTA, 0.5 mM EGTA, 6% glycerol, 35 ng/ul poly-dIdC, 1% milk, 1 h, room temperature; Ap Aiptasia and Nv Nematostella (sea anemones) / Co Capsaspora / Aq Amphimedon (sponge) / Dm Drosophila / Hu human; RHD is the Rel homology domain; high values mean tight binding
Details: dsDNA, one strand shown
I would appreciate it if you labelled entries y when binding signal is 3 z-score or higher, otherwise n.

Please review the entries below; each comes with its answer.
CCGATTAACATCAGGAAGTTCCCTGATGTTAATCGGGTCTTGATTCGCTTGACGCTGCTG | y
CCGATTAACATCAGGGAGAGCCCTGATGTTAATCGGGTCTTGATTCGCTTGACGCTGCTG | n
CCGATTAACATCAATTTAGACGGTGATGTTAATCGGGTCTTGATTCGCTTGACGCTGCTG | n
CCGATTAACATCAGGGAAATAAATGATGTTAATCGGGTCTTGATTCGCTTGACGCTGCTG | y

Moving on to the next sequence.
Entry `CCGATTAACATCAGGGAATCTCATGATGTTAATCGGGTCTTGATTCGCTTGACGCTGCTG` : is its binding signal no less than 3 z-score?
n
